- System: Human RSV-A (“Long” strain)
- run.description: RSV in vitro cytoprotection assay in HEp-2 cells (ATPlite readout)
- Assay type: cell-based
- assay.conditions: human respiratory syncytial virus, 96 h; HEp-2 cells, genotype A “Long” strain RSV, 4-day incubation, ATPlite; read-out: Human RSV-A (“Long” strain) EC50
pEC50: −log10 of the molar value.
endpoint: pEC50

Here's what some known entries look like.
- structure.as.smiles: "Cc1cnc(N2CC3(CCOCC3)C2)c(C(=O)Nc2ccc(C(=O)N3c4ccccc4N=C(c4ccc(C(=O)Nc5ncccc5F)s4)[C@H]3C)cc2)c1"
  recorded.result: "7.30 to 8.00"
- structure.as.smiles: "Cc1cnc(N2CC3(CCOCC3)C2)c(C(=O)Nc2ccc(C(=O)N3c4cccnc4N=C(c4ccc(C(=O)NC5CCC5)s4)[C@H]3C)cc2)c1"
  recorded.result: "7.30 to 8.00"
- structure.as.smiles: "Cc1cnc(N2CC3(CCOCC3)C2)c(C(=O)Nc2ccc(C(=O)N3c4ccccc4N=C(c4ccc(C(=O)Nc5c(C)cccc5F)cc4)[C@@H]3C)cc2)c1"
  recorded.result: "< 7.30"
- structure.as.smiles: "Cc1ccc(C(=O)Nc2ccc(C(=O)N3c4ccccc4N=C(c4ccc(C(=O)NC5CCC5)s4)[C@H]3C)cc2)c(N2CC3(CCOCC3)C2)n1"
  recorded.result: "> 8.00"

Each molecule below has a reported value. Please supply its pEC50.
1. Cc1cnc(N2CC3(CCOCC3)C2)c(C(=O)Nc2ccc(C(=O)N3c4ncccc4N=C(c4ccc(C(=O)NC5CCC5)s4)[C@H]3C)cc2)c1
2. Cc1cnc(N2CC3(CCOCC3)C2)c(C(=O)Nc2ccc(C(=O)N3c4ccccc4N=C(c4ccc(C(=O)NC5CC5)s4)[C@H]3C)cc2)c1

1: 7.30 to 8.00; 2: > 8.00
